Entries and their hERG current change (%, negative = inhibition) at 10uM values follow.
- studyTarget: human ether-à-go-go-related gene (hERG) potassium channel (human);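 further: peak tail current of the secondary pulse compared with the same well before compound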
- Sequence (Q12809 whole entry, looked up): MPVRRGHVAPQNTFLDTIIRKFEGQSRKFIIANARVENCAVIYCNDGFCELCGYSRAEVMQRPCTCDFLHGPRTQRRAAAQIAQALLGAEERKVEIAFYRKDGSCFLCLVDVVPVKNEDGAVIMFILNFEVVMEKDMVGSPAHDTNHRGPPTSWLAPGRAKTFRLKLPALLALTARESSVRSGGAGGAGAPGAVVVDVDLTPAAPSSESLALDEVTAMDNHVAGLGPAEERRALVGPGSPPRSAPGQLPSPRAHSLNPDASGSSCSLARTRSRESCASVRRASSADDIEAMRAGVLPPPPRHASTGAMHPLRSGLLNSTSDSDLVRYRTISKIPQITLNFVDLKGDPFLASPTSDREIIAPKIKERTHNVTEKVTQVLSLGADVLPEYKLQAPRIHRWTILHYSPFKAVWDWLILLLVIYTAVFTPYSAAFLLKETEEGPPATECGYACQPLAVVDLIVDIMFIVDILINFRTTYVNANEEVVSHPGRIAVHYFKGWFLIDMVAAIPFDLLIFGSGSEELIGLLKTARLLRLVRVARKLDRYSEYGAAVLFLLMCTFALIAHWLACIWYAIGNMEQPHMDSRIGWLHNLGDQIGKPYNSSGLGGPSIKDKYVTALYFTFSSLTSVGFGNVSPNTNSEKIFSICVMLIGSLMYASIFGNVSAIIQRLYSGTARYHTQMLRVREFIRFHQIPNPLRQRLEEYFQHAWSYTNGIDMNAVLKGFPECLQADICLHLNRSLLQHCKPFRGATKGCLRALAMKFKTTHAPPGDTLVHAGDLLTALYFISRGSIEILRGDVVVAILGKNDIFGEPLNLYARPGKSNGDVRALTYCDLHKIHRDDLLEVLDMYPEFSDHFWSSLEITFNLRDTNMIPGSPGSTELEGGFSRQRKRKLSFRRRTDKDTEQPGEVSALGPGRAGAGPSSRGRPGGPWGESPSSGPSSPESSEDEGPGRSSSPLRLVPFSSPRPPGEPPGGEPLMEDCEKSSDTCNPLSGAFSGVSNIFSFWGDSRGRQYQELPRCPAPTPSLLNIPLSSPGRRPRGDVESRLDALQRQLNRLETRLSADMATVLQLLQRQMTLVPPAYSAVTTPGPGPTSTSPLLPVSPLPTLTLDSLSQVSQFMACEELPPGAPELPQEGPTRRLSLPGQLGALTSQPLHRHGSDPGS
- assayProcedure: primary screen, population patch clamp on CHO cells stably expressing hERG; higher = less effect of the substance
Out of some 310,000 compounds screened, about 14,000 (4.5%) showed an effect of 50% or more. The effect is printed as a negative number. This excerpt belongs to a sample that is enriched for strong results.
readoutType: hERG current change (%, negative = inhibition) at 10uM (%)

[[record]]
molecule = "COc1ccc(-n2nnnc2SCC(=O)Nc2nc3c(s2)CCCC3)cc1"
displayunit = "%"
result = 9.26

[[record]]
molecule = "CC(O)[C@@H](C(=O)N1CCNCC1)n1cc(CCCCN)nn1.Cl (stereo partly drawn)"
displayunit = "%"
result = 14.3

[[record]]
molecule = "CCN(CC)C(=O)C(=O)N/N=C/c1cccc(Br)c1"
displayunit = "%"
result = -8.07

[[record]]
molecule = "COc1ccc2nc(NC(=O)C3CCN(S(=O)(=O)c4cccc5nsnc45)CC3)sc2c1"
displayunit = "%"
result = 0.473

[[record]]
molecule = "CC1CCCCN1Cc1ccc(N)cc1 (stereo not drawn)"
displayunit = "%"
result = 12.7

[[record]]
molecule = "Cc1ccc(S(=O)(=O)N2CCCN(C(C)c3nc4ccccc4c(=O)[nH]3)CC2)cc1 (stereo not drawn)"
displayunit = "%"
result = -25.6

[[record]]
molecule = "Cc1ccccc1NC(=O)C1CCN(C2=NS(=O)(=O)c3ccccc32)CC1"
displayunit = "%"
result = -15.2

[[record]]
molecule = "CC(=O)c1cccc(NC(=O)c2ccc(NC(=O)CC3SC(N4CCCCC4)=NC3=O)cc2)c1 (stereo not drawn)"
displayunit = "%"
result = 10.3

[[record]]
molecule = "Cc1cc(C)cc(NC(=O)c2ccc(CSc3nnnn3C)cc2)c1"
displayunit = "%"
result = -24

[[record]]
molecule = "Cc1cc(/C=C(\\C#N)C(=O)NC2CCCCCC2)c(C)[nH]1"
displayunit = "%"
result = 9.54

[[record]]
molecule = "OCCC1CN(Cc2cccc(O)c2)CCN1CCc1ccccc1 (stereo not drawn)"
displayunit = "%"
result = -24.4

[[record]]
molecule = "CC(=O)c1ccc(NC(=O)C2CC2c2ccccc2)cc1 (stereo not drawn)"
displayunit = "%"
result = 3.25

[[record]]
molecule = "COc1cc(CN2CCN(CC#Cc3ccccc3)CC2CCO)cc(OC)c1 (stereo not drawn)"
displayunit = "%"
result = -1.09

[[record]]
molecule = "COc1ccc(CCN(C(=O)c2cccc(F)c2)C2CC(=O)N(c3ccccc3)C2=O)cc1 (stereo not drawn)"
displayunit = "%"
result = -38.5

[[record]]
molecule = "Cc1csc(NC(=O)c2ccccc2C(=O)O)n1"
displayunit = "%"
result = -0.365

[[record]]
molecule = "NC(=O)CC(NC(=O)Cc1ccc(Br)cc1)c1ccc(N2CCc3ccccc3C2)c([N+](=O)[O-])c1 (stereo not drawn)"
displayunit = "%"
result = -2.08

[[record]]
molecule = "CCOc1ccc(N2C(=O)CC(N(CCc3ccc(OC)cc3)C(=O)c3cccc(F)c3)C2=O)cc1 (stereo not drawn)"
displayunit = "%"
result = -63

[[record]]
molecule = "COCCCNC(=O)c1cc(C(=O)c2ccccc2Br)c[nH]1"
displayunit = "%"
result = 15.1

[[record]]
molecule = "CCN(CCO)C(=O)C12CCC(C)(C(=O)C1)C2(C)C (stereo not drawn)"
displayunit = "%"
result = -9.66

[[record]]
molecule = "Cc1ccc(SCC(=O)Nc2ccc(F)cc2[N+](=O)[O-])cc1C"
displayunit = "%"
result = 11.7

[[record]]
molecule = "CCCC(=O)c1ccc(-c2ccccc2)cc1"
displayunit = "%"
result = -4.95

